Tested on: HCC1569
ASSAY_PROTOCOL: Cell panel screen (CellTiter-Glo)
Assay type: cell-based, human
TEST_CONTEXT: HCC1569 (Breast), 20 micromolar, 72 hrs
QUANTITY_KIND: Percent Inhibition (%)
The response must be a number in % with no trailing unit.

{"COMPOUND": "COC(=O)C1OC(Oc2cc(O)c3c(=O)cc(-c4ccc(O)cc4)oc3c2)C(O)C(O)C1O (centres unmarked) [WZ-6]", "RESULT_UNITS": "%", "Percent Inhibition": -18}
{"COMPOUND": "O=c1c2cc(O)ccc2oc2cccc(O)c12 [gl-20]", "RESULT_UNITS": "%", "Percent Inhibition": 57}
{"COMPOUND": "CC(C)=CCc1c(O)cc2oc3cc(O)c(O)c(CC=C(C)C)c3c(=O)c2c1O [Ge9]", "RESULT_UNITS": "%", "Percent Inhibition": 97}
{"COMPOUND": "O=C1CC(c2ccc(O)c(O)c2)Oc2cc(OC3OC(C(=O)O)C(O)C(O)C3O)cc(O)c21 (centres unmarked) [gly-2]", "RESULT_UNITS": "%", "Percent Inhibition": -6}
{"COMPOUND": "CC(C)=CCc1c2c(c(O)c3c1OC14C(=CC5CC1C(C)(C)OC4(CC=C(C)C(=O)O)C5=O)C3=O)C=CC(C)(C)O2 (centres unmarked) [GB27]", "RESULT_UNITS": "%", "Percent Inhibition": 99}
{"COMPOUND": "CC1(C)C=Cc2cc3c(=O)c4c(O)cc(O)cc4oc3c(O)c2O1 [Go-11]", "RESULT_UNITS": "%", "Percent Inhibition": 41}

compound CC(C)=CCc1c(O)cc2oc3cc(O)c(O)c(CCC(C)(C)O)c3c(=O)c2c1O [bn-16, Garcinone C] , Percent Inhibition observed: 81

The recorded Percent Inhibition for CC(C)=CCc1c2c(c3oc4c(O)c(O)ccc4c(=O)c3c1O)C=CC(C)(C)O2 [Compound C-6] is 7
